System: NCI-H460 lung
test summary: NCI tumour cell line growth inhibition, 48 h
Recorded TGI by entry

# compound, reported
rows = [
    ("COc1cc(C2C(Cl)C(=O)N2NC(=O)c2ccccc2O)ccc1O (configuration not stated)", "> 100 µM"),
    ("OCCCN=NNc1ccc(-c2nc3ccccc3[nH]2)cc1", "> 100 µM"),
    ("CCNC1(c2cccc(C)c2)OC(C)(C)c2cccc3cccc1c23 (configuration not stated)", "30 µM"),
    ("Clc1ccc(Oc2ccc(N=Cc3ccc(Cl)cc3Cl)cc2Cl)cc1", "> 100 µM"),
    ("COc1cc(/C=C/c2cc(/C=C/c3ccc(O)c(OC)c3)n(-c3c(C)cccc3C)c(=O)n2)ccc1O", "4.37 µM"),
]

Form field TGI for item CC1C[C@H](OC(N)=O)C(C)CC1=O (some centres not stated) on NCI-H460 lung: > 100 µM

Form field TGI for item CC(=O)C1CC=C(C)CC1 (configuration not stated) on NCI-H460 lung: > 100 µM

Form field TGI for item O=C(CO)CC(=O)C(=O)Nc1nc([N+](=O)[O-])cs1 on NCI-H460 lung: > 100 µM

Form field TGI for item CCCc1cc(=O)oc2c3c(c4c(c12)OC(C)(C)C=C4)O[C@@H](C)[C@H](C)C3=O on NCI-H460 lung: 44.4 µM

Form field TGI for item CC1=CC(=O)CCC2(C)C1CC[C@@H]2OC=O (some centres not stated) on NCI-H460 lung: > 100 µM

Form field TGI for item CC(N)C(C)Cc1ccccc1 (configuration not stated) on NCI-H460 lung: > 100 µM

Form field TGI for item C[C@]12CCC[C@H](Cl)C1(O)C[C@H](C(=O)O)CC2 (some centres not stated) on NCI-H460 lung: > 100 µM

* * *

System: NCI-H23 lung
test summary: NCI tumour cell line growth inhibition, 48 h
Recorded GI50 by entry

# smiles record, study target, GI50
data = [
    ("C(=C\\c1n(Cc2ccc3ccccc3c2)c(-c2ccccc2)c(-c2ccccc2)[n+]1Cc1ccc2ccccc2c1)/c1ccccc1", "NCI-H23 lung", "0.257 µM"),
]

Lab note: measured GI50 of O=[N+]([O-])c1ccc(-c2nc(-c3ccccc3)c(-c3ccccc3)n2-c2ccccc2)cc1 was 2.62 µM

Lab note: measured GI50 of COc1cc(NCCCCN=C(N)NC(N)=NC(C)C)c2ncccc2c1 was 0.984 µM

Lab note: measured GI50 of CC(=O)c1c(C(F)(F)F)n([O-])c2ccc(Cl)cc2[n+]1=O was 1.72 µM

Lab note: measured GI50 of C=C1C[C@](OC)([C@H](O)C(=O)N[C@@H](OC)[C@@H]2C[C@@H](O)C(C)(C)[C@@H](C[C@@H](COC)OC)O2)O[C@H](C)[C@@H]1C was 0.00189 µM

* * *

Tested on: SW-620 colon
test summary: NCI tumour cell line growth inhibition, 48 h
Recorded TGI by entry

# molecule, TGI
measured = [
    ("Cc1cccc2c1Oc1cc(Cl)ccc1C2NC(=O)CCN1CCN(CCO)CC1 (configuration not stated)", "32.2 µM"),
    ("CC(=O)Nc1ccc(Sc2ccc([N+](=O)[O-])o2)cc1", "2.22 µM"),
    ("CCCc1c(OC)c(=O)c2c(OC)cc(OC)c3c4c(OC)cc(OC)c5c(=O)c(OC)c(CCC)c(c1c23)c54", "33.7 µM"),
    ("C[C@H](Nc1c(O)c2c(c(O)c1Cl)C(=O)C=CC2=O)C(=O)Nc1ccc([N+](=O)[O-])cc1", "6.49 µM"),
    ("Clc1ccc(SCCSCCCCCCCCCCSCCSc2ccc(Cl)cc2)cc1", "> 100 µM"),
]

Form field TGI for item CCOc1ccc([C@@H]2[C@@H](Oc3ccccc3)C(=O)N2c2cc(OC)c(OC)c(OC)c2)cc1 on SW-620 colon: > 100 µM

Form field TGI for item CCN(CC)CCCNc1cccc2c(SCc3ccccc3)ccnc12 on SW-620 colon: 3.46 µM

Form field TGI for item CC1C[C@H](OC(N)=O)C(C)CC1=O (some centres not stated) on SW-620 colon: > 100 µM

Form field TGI for item Brc1ccc(-c2nnc(-c3nn(-c4ccccc4)c4nc5ccccc5nc34)o2)cc1 on SW-620 colon: > 100 µM

Form field TGI for item CC(=O)C1CC=C(C)CC1 (configuration not stated) on SW-620 colon: > 100 µM

Form field TGI for item CC(N)C(C)Cc1ccccc1 (configuration not stated) on SW-620 colon: > 100 µM

Form field TGI for item OC12COc3ccccc3C1Oc1ccccc1C2 (configuration not stated) on SW-620 colon: > 100 µM

Form field TGI for item COc1cc(NCCCCN=C(N)NC(N)=NC(C)C)c2ncccc2c1 on SW-620 colon: 22.2 µM

Ref: PubChem BioAssay (NCI)
